Property: TGI; scope: individual molecules
- Test system: OVCAR-8
- assay protocol: Antitumor activity against human OVCAR8 cells
- Format: functional
- experimental setup: read-out: pTGI (converted)
Reply numerically in µM, unit not repeated.

# molecule, TGI [µM]
measured = [
    ("O=c1[nH]c2cc(Cl)c(Cl)cc2n2cc3ccccc3c12", 32.4),
    ("Cc1cc2[nH]c(=O)c3c4ccccc4cn3c2cc1C", 25.7),
    ("COc1ccc2c(c1)[nH]c(=O)c1c3ccccc3cn21", 2.34),
]

Attention now turns to another entry.
Query the reported TGI for OVCAR-8; item: O=c1[nH]c2ccccc2n2cc3ccccc3c12
33.1

---

- Tested on: SK-MEL-28
- assay protocol: Antitumor activity against human SKMEL28 cells
- Format: functional
Property: GI50; scope: individual molecules
Reply numerically in µM, unit not repeated.

Some molecules with known GI50 results, for comparison:
# molecule, GI50, µM
data = [
    ("O=c1[nH]c2ccccc2n2cc3ccccc3c12", 22.4),
    ("O=c1[nH]c2cc(Cl)c(Cl)cc2n2cc3ccccc3c12", 33.1),
    ("Cc1cc2[nH]c(=O)c3c4ccccc4cn3c2cc1C", 14.8),
    ("COc1ccc2c(c1)[nH]c(=O)c1c3ccccc3cn21", 0.0525),
]

Attention now turns to another entry.
Query the reported GI50 for SK-MEL-28; item: Cc1cccc2c1[nH]c(=O)c1c3ccccc3cn21
6.92

---

- System: ACHN
- assay protocol: Antitumor activity against human ACHN cells
- Type: functional
- experimental setup: read-out: pTGI (converted)
parameter measured: TGI (µM)
Reply numerically in µM, unit not repeated.

Some compounds with known TGI results, for comparison:
# molecule, unit, TGI
measured = [
    ("COc1ccc2c(c1)[nH]c(=O)c1c3ccccc3cn21", "µM", 1.82),
    ("Cc1cc2[nH]c(=O)c3c4ccccc4cn3c2cc1C", "µM", 23.4),
    ("O=c1[nH]c2ccccc2n2cc3ccccc3c12", "µM", 7.24),
    ("Cc1cccc2c1[nH]c(=O)c1c3ccccc3cn21", "µM", 22.4),
]

Find the recorded TGI belonging to O=c1[nH]c2cc(Cl)c(Cl)cc2n2cc3ccccc3c12 and report it.
28.8

---

- System: MCF7
- assay protocol: Resistance index, Ratio of GI50 for human multidrug-resistant MCF7 cells to GI50 for human MCF7 cells
- Format: functional
Property: RatioGI50; scope: individual compounds
I'd appreciate a reply containing only the number, no unit.

Some compounds with known RatioGI50 results, for comparison:
# molecule, RatioGI50
data = [
    ("COc1ccc2c(c1)[nH]c(=O)c1c3ccccc3cn21", 0.9),
    ("Cc1cc2[nH]c(=O)c3c4ccccc4cn3c2cc1C", 1.8),
]

Find the recorded RatioGI50 belonging to O=c1[nH]c2cc(Cl)c(Cl)cc2n2cc3ccccc3c12 and report it.
2.3

Find the recorded RatioGI50 belonging to Cc1cccc2c1[nH]c(=O)c1c3ccccc3cn21 and report it.
2.2

Find the recorded RatioGI50 belonging to O=c1[nH]c2ccccc2n2cc3ccccc3c12 and report it.
1.6

---

- System: OVCAR-5
- assay protocol: Antitumor activity against human OVCAR5 cells
- Assay type: functional
- experimental setup: read-out: pTGI (converted)
Property: TGI; scope: individual compounds
Reply numerically in µM, unit not repeated.

Some compounds with known TGI results, for comparison:
# molecule, TGI / µM
measured = [
    ("Cc1cc2[nH]c(=O)c3c4ccccc4cn3c2cc1C", 27.5),
    ("Cc1cccc2c1[nH]c(=O)c1c3ccccc3cn21", 66.1),
    ("COc1ccc2c(c1)[nH]c(=O)c1c3ccccc3cn21", 7.94),
]

Query the reported TGI for OVCAR-5; item: O=c1[nH]c2ccccc2n2cc3ccccc3c12
35.5

Query the reported TGI for OVCAR-5; item: O=c1[nH]c2cc(Cl)c(Cl)cc2n2cc3ccccc3c12
30.9

---

- assay protocol: Antitumor activity against human […] cells
- Format: functional
Property: GI50; scope: individual compounds
Reply numerically in nM, unit not repeated.

# molecule, parameter measured, unit, value reported
data = [
    ("O=c1[nH]c2cc(Cl)c(Cl)cc2n2cc3ccccc3c12", "GI50", "nM", 17400),
    ("Cc1cc2[nH]c(=O)c3c4ccccc4cn3c2cc1C", "GI50", "nM", 8320),
    ("COc1ccc2c(c1)[nH]c(=O)c1c3ccccc3cn21", "GI50", "nM", 56.2),
    ("O=c1[nH]c2ccccc2n2cc3ccccc3c12", "GI50", "nM", 955),
]

Attention now turns to another entry.
Find the recorded GI50 belonging to Cc1cccc2c1[nH]c(=O)c1c3ccccc3cn21 and report it.
2400

---

Property: TGI; scope: individual compounds
- System: Hs-578T
- assay protocol: Antitumor activity against human HS578T cells
- Type: functional
- experimental setup: read-out: pTGI (converted)
Reply numerically in µM, unit not repeated.

Some compounds with known TGI results, for comparison:
# molecule, TGI [µM]
measured = [
    ("O=c1[nH]c2ccccc2n2cc3ccccc3c12", 34.7),
    ("COc1ccc2c(c1)[nH]c(=O)c1c3ccccc3cn21", 2.69),
]

Find the recorded TGI belonging to Cc1cc2[nH]c(=O)c3c4ccccc4cn3c2cc1C and report it.
60.3

Find the recorded TGI belonging to Cc1cccc2c1[nH]c(=O)c1c3ccccc3cn21 and report it.
64.6

Find the recorded TGI belonging to O=c1[nH]c2cc(Cl)c(Cl)cc2n2cc3ccccc3c12 and report it.
52.5

---

- System: A549
- assay protocol: Antitumor activity against human A549 cells
- Type: functional
- experimental setup: read-out: pTGI (converted)
Property: TGI; scope: individual compounds
Reply numerically in µM, unit not repeated.

# molecule, unit, TGI
measured = [
    ("COc1ccc2c(c1)[nH]c(=O)c1c3ccccc3cn21", "µM", 1.66),
    ("O=c1[nH]c2cc(Cl)c(Cl)cc2n2cc3ccccc3c12", "µM", 34.7),
]

Find the recorded TGI belonging to Cc1cc2[nH]c(=O)c3c4ccccc4cn3c2cc1C and report it.
38

Find the recorded TGI belonging to O=c1[nH]c2ccccc2n2cc3ccccc3c12 and report it.
32.4

---

- System: HOP-92
- assay protocol: Antitumor activity against human HOP92 cells
- Format: functional
- experimental setup: read-out: pTGI (converted)
Property: TGI; scope: individual molecules
Reply numerically in µM, unit not repeated.

Find the recorded TGI belonging to Cc1cc2[nH]c(=O)c3c4ccccc4cn3c2cc1C and report it.
30.2

Find the recorded TGI belonging to COc1ccc2c(c1)[nH]c(=O)c1c3ccccc3cn21 and report it.
15.8

Find the recorded TGI belonging to O=c1[nH]c2cc(Cl)c(Cl)cc2n2cc3ccccc3c12 and report it.
34.7

Find the recorded TGI belonging to Cc1cccc2c1[nH]c(=O)c1c3ccccc3cn21 and report it.
32.4

Find the recorded TGI belonging to O=c1[nH]c2ccccc2n2cc3ccccc3c12 and report it.
18.6

---

- System: MCF7
- assay protocol: Antitumor activity against human MCF7 cells
- Assay type: functional
parameter measured: LC50 (50% net cell kill) (µM)
Reply numerically in µM, unit not repeated.

Some compounds with known LC50 (50% net cell kill) results, for comparison:
# molecule, LC50 (50% net cell kill) [µM]
data = [
    ("Cc1cccc2c1[nH]c(=O)c1c3ccccc3cn21", 39.8),
    ("COc1ccc2c(c1)[nH]c(=O)c1c3ccccc3cn21", 5.5),
]

Attention now turns to another entry.
Find the recorded LC50 (50% net cell kill) belonging to O=c1[nH]c2cc(Cl)c(Cl)cc2n2cc3ccccc3c12 and report it.
72.4

---

- Tested on: SF-268
- assay protocol: Antitumor activity against human SF268 cells
- Type: functional
- experimental setup: read-out: Log LC50 (the source's name) (converted)
parameter measured: CC50 (µM)
Reply numerically in µM, unit not repeated.

Some compounds with known CC50 results, for comparison:
# molecule, target entity, value reported
data = [
    ("COc1ccc2c(c1)[nH]c(=O)c1c3ccccc3cn21", "SF-268", 87.1),
    ("Cc1cc2[nH]c(=O)c3c4ccccc4cn3c2cc1C", "SF-268", 69.2),
]

Query the reported CC50 for SF-268; item: O=c1[nH]c2cc(Cl)c(Cl)cc2n2cc3ccccc3c12
75.9

Query the reported CC50 for SF-268; item: Cc1cccc2c1[nH]c(=O)c1c3ccccc3cn21
75.9

---

Property: GI50; scope: individual compounds
- Tested on: CCRF-CEM
- assay protocol: Growth inhibition of human CEM cells after 72 hrs by MTT assay
- Type: functional
Reply numerically in nM, unit not repeated.

Some compounds with known GI50 results, for comparison:
# molecule, value reported
data = [
    ("Cc1cc2[nH]c(=O)c3c4ccccc4cn3c2cc1C", 15500),
    ("COc1ccc2c(c1)[nH]c(=O)c1c3ccccc3cn21", 20),
    ("O=c1[nH]c2ccccc2n2cc3ccccc3c12", 4700),
    ("O=c1[nH]c2cc(Cl)c(Cl)cc2n2cc3ccccc3c12", 2200),
]

Attention now turns to another entry.
Query the reported GI50 for CCRF-CEM; item: Cc1cccc2c1[nH]c(=O)c1c3ccccc3cn21
2900
